Target: H1299 cell pMer (Homo sapiens)
Construct: endogenous in cells
Sequence (Q12866 21-999): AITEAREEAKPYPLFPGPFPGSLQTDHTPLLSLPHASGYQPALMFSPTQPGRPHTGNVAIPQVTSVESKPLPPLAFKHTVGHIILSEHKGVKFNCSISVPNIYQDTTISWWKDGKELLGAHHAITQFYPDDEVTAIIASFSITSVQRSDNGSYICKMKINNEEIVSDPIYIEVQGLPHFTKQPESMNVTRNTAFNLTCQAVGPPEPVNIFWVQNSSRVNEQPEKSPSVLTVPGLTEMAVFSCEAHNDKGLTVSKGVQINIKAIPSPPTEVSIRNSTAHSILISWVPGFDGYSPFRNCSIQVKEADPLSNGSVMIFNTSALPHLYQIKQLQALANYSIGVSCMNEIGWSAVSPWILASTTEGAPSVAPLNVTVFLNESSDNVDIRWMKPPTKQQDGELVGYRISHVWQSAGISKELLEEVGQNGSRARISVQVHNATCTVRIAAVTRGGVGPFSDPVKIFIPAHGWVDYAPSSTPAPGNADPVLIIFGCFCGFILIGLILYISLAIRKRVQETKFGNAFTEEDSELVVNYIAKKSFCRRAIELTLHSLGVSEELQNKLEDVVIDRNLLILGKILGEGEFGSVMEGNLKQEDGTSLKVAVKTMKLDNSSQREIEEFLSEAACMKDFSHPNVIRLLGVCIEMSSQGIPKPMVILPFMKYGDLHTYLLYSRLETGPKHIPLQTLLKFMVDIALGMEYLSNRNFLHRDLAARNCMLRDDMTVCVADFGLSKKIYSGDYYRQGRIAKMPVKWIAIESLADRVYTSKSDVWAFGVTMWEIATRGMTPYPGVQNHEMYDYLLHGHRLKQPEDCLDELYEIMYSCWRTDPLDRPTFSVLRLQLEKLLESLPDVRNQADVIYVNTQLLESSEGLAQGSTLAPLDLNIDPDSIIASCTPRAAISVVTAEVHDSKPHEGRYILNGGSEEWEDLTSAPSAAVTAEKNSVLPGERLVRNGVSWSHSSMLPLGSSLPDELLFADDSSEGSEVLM
Test: Inhibitory activity on cell pMer (H1299 cells, Human MerMab stimulation, Western Blot)
Settings: Human MerMab 200 ng/mL, tested at 0.37, 1.1, 3.3 and 10 nM
parameter-measured: pIC50
API: returns pIC50 as number; meaning -log10 of concentration in mol/L.

Ask: For Nc1nccc(Oc2ccc(NC(=O)c3nn(C4CC4)cc(-c4ccc(F)cc4)c3=O)cn2)c1Cl [Compound 19] , write its pIC50.
Reply: 8.00

Ask: Identify measured pIC50 corresponding to Nc1nccc(Oc2cnc(NC(=O)c3nn(C4CC4)cc(-c4ccc(F)cc4)c3=O)nc2)c1Cl [Compound 18]
Reply: 8.96

Ask: Please look at this compound and report its pIC50: CC(C)n1cc(-c2ccc(F)cc2)c(=O)c(C(=O)Nc2ncc(Oc3ccnc(N)c3Cl)cn2)n1 [Compound 12]
Reply: 8.96

Ask: For the compound C=CCn1cc(-c2ccc(F)cc2)c(=O)c(C(=O)Nc2ncc(Oc3ccnc(N)c3Cl)cn2)n1 [Compound 37] , give its reported pIC50.
Reply: 8.48

Ask: Give the reported pIC50 for this compound. CC(C)n1cc(-c2ccc(F)cc2)c(=O)c(C(=O)Nc2ccc(Oc3ccnc(N)c3Cl)cn2)n1 [Compound 11]
Reply: 8.96

* * *

# collection of pIC50 values tested on Mer (h) (Homo sapiens)
# Sequence (Q12866 21-999): as above
Kindly note that pIC50 refers to -log10 of the concentration in mol/L and answer with the value alone.

Ask: Supply measured pIC50 of C=CCn1cc(-c2ccc(F)cc2)c(=O)c(C(=O)Nc2ccc(Oc3ccnc(N)c3Cl)cn2)n1 [Compound 35] in your reply.
Reply: 8.40

Ask: Dear colleague, please send me the reported pIC50 for CC(C)n1cc(-c2ccc(F)cc2)c(=O)c(C(=O)Nc2ccc(Oc3ccnc(N)c3Cl)cn2)n1 [Compound 11] when you can.
Reply: 8.05

Ask: Specify measured pIC50 for Nc1nccc(Oc2cnc(NC(=O)c3nn(C4CC4)cc(-c4ccc(F)cc4)c3=O)nc2)c1Cl [Compound 18] .
Reply: 8.22

Ask: Indicate the recorded pIC50 value for this compound: Nc1nccc(Oc2ccc(NC(=O)c3nn(C4CC4)cc(-c4ccc(F)cc4)c3=O)cn2)c1Cl [Compound 19]
Reply: 7.74

Ask: Return the recorded pIC50 value; entry: Nc1nccc(Oc2ccc(NC(=O)c3nn(C4CC4)cc(-c4ccc(F)cc4)c3=O)nc2)c1Cl [Compound 17]
Reply: 8.70

Ask: Fill in reported pIC50 for this entry: C=CCn1cc(-c2ccc(F)cc2)c(=O)c(C(=O)Nc2ncc(Oc3ccnc(N)c3Cl)cn2)n1 [Compound 37]
Reply: 8.15

* * *

Target: Ron (h) (Homo sapiens)
Construct: purchased
Sequence (Q04912 25-1400): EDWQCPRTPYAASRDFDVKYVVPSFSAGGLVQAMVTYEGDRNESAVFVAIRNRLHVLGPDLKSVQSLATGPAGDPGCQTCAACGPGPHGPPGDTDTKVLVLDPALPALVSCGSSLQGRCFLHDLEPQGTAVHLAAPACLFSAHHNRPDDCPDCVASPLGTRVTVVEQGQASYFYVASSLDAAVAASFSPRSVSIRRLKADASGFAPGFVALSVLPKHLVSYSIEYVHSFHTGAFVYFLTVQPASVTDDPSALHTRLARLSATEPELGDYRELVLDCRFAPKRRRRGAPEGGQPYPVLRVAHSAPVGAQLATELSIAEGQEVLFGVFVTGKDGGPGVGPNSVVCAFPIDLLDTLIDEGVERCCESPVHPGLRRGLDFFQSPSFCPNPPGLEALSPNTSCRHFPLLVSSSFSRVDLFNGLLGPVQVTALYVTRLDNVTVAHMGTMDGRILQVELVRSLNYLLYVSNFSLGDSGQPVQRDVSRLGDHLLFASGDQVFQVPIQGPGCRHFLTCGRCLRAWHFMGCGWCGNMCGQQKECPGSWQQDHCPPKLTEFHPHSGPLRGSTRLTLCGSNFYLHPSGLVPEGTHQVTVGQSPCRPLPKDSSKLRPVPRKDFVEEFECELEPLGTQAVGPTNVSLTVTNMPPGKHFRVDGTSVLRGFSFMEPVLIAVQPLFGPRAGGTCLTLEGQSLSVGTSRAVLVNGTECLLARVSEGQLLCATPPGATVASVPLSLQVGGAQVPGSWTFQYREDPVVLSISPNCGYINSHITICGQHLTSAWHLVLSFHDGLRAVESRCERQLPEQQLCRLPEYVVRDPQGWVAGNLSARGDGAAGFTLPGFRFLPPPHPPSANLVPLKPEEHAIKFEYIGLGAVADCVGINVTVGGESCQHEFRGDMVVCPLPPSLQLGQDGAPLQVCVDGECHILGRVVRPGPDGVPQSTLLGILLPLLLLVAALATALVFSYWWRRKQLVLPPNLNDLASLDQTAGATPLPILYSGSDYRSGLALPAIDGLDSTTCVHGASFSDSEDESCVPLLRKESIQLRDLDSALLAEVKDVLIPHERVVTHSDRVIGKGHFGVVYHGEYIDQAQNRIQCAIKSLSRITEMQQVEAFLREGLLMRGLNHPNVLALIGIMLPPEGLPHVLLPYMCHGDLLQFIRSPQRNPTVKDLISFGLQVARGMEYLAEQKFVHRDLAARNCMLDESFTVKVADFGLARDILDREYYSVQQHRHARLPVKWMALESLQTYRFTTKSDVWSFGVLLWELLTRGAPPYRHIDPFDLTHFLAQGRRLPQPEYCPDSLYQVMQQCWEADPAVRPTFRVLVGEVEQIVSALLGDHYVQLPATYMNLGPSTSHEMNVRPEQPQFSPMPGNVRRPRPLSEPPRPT
Assay: Enzymatic activity assay, Ron (h) kinase, [γ-33P]-ATP
Format: biochemical
Details: 10 μM [γ-33P]-ATP, 40 min, room temperature; read-out: Inhibitory Activity on Ron (h) kinase, IC50
parameter-measured: pIC50
Scale explanation: pIC50 corresponds to minus log10 of a concentration expressed in moles per litre.

Ask: Quote pIC50 reported for C=CCn1cc(-c2ccc(F)cc2)c(=O)c(C(=O)Nc2ccc(Oc3ccnc(N)c3Cl)cn2)n1 please.
Reply: 8.30

Ask: Note pIC50 for the compound shown: C=CCn1cc(-c2ccc(F)cc2)c(=O)c(C(=O)Nc2ccc(Oc3ccnc(N)c3Cl)nc2)n1
Reply: 7.92

Ask: Quote pIC50 reported for C=CCn1cc(-c2ccc(F)cc2)c(=O)c(C(=O)Nc2ncc(Oc3ccnc(N)c3Cl)cn2)n1 please.
Reply: 7.92

Ask: State, in one line, measured pIC50 of Cn1cc(-c2ccc(F)cc2)c(=O)c(C(=O)Nc2ccc(Oc3ccnc(N)c3Cl)cn2)n1
Reply: 7.77

Ask: Find the measured pIC50 of CC(C)n1cc(C(=O)Nc2ccc(Oc3ccnc(N)c3Cl)nc2)c(=O)c(-c2ccc(F)cc2)n1 and report it.
Reply: 7.04

Ask: Hello, please tell me recorded pIC50 for this one: Nc1nccc(Oc2cnc(NC(=O)c3nn(C4CC4)cc(-c4ccc(F)cc4)c3=O)nc2)c1Cl
Reply: 7.85

Ask: Kindly indicate its recorded pIC50. Item: Nc1nccc(Oc2ccc(NC(=O)c3nn(C4CC4)cc(-c4ccc(F)cc4)c3=O)cn2)c1Cl
Reply: 7.19
